Tested on: synaptosomal striatal (^3 H)DA capture
RUN_DESCRIPTION: Inhibition test of the synaptosomal striatal sample (capture) of (^3 H)DA
Type: biochemical, Wistar rats
CONDITIONS_USED: ratio of IC50
REPORTED_METRIC: ^3 HDA/^3 H-TCP
One number for each entry.

Worked examples follow.
* c1csc(C2(N3CCCCC3)CCCCC2)c1 [TCP, ((2-thienyl)-1 cyclohexyl)-N-piperidine, reference compound] | 25.39
* CC1CCN(C2(c3ccccc3)CCCCC2)CC1 | 125
* C[C@H]1CC[C@](c2cccs2)(N2CCCCC2)CC1 | 105
* c1ccc(C2(N3CCCCC3)CCCCC2)cc1 [PCP, 1-(1-phenylcyclohexyl)-piperidine, reference compound] | 2.5

Consider the record given below.
**Q:** Provide measured ^3 HDA/^3 H-TCP value, entry: C[C@@H]1CCCC[C@]1(c1cccs1)N1CCCCC1 (relative stereo)
**A:** 415

---

Tested on: cerebral cholinergic muscarinic receptor
Type: binding, rat
CONDITIONS_USED: ratio of IC50
Note to self: values exactly at 200 are Satisfied. So ^3 HQNB/^3 HTCP at or above 200 is Satisfied, below is Not satisfied.

Some entries whose results are on file:
* OCC1CCCN(C2(c3ccccc3)CCCCC2)C1 (centres unmarked) | Not satisfied
* C1=CCN(C2(c3cccs3)CCCCC2)CC1 | Satisfied
* ClCC1CCCN(C2(c3cccs3)CCCCC2)C1 (centres unmarked) | Satisfied
* C[C@H]1CC[C@](c2cccs2)(N2CCCCC2)CC1 | Satisfied
* C[C@H]1CC[C@@](c2cccs2)(N2CCCC(CO)C2)CC1 (some centres unmarked) | Satisfied
* c1csc(C2(N3CCCCC3)CCCCC2)c1 [TCP, ((2-thienyl)-1 cyclohexyl)-N-piperidine, reference compound] | Satisfied
* O[C@H]1CCCC[C@]1(c1ccccc1)N1CCCCC1 (relative stereo) | Not satisfied
* CC(=O)OCC1CCCN(C2(c3ccccc3)CCCCC2)C1 (centres unmarked) | Not satisfied

**Q:** Answer whether ^3 HQNB/^3 HTCP of OCC1CCCN(C2(c3cccs3)CCCCC2)C1 (centres unmarked) is greater than or equal to 200.
**A:** Not satisfied

**Q:** Check the entry C[C@H]1CC[C@@](c2cccc(F)c2)(N2CCCC(CO)C2)CC1 (some centres unmarked) : does ^3 HQNB/^3 HTCP equal or exceed 200?
**A:** Not satisfied

**Q:** I'd appreciate it if you could say whether c1ccc(C2(N3CCCCC3)CCCCC2)cc1 [PCP, 1-(1-phenylcyclohexyl)-piperidine, reference compound] has ^3 HQNB/^3 HTCP at least equal to 200.
**A:** Not satisfied

---

Please go through the items and note down their LD50.
RUN_DESCRIPTION: Subcutaneous LD50 in the rat
CONDITIONS_USED: in vivo, sc

- OCC1CCCN(C2(c3ccccc3)CCCCC2)C1 (centres unmarked): > 60 mg/kg

Let us move to another entry and its LD50.
**Q:** Give the reported value of LD50 for this record: OCC1CCCN(C2(c3cccs3)CCCCC2)C1 (centres unmarked)
**A:** > 60 mg/kg

---

Provide the reported pIC50 of each item.
EXPERIMENTAL_TARGET: receptor of the opiates (Rattus norvegicus, UniProt P33535)
Construct: variable concentrations of the tested compound and a rat brain homogenate; from tissue; host or cells: rat brain homogenate
Sequence (P33535 whole entry): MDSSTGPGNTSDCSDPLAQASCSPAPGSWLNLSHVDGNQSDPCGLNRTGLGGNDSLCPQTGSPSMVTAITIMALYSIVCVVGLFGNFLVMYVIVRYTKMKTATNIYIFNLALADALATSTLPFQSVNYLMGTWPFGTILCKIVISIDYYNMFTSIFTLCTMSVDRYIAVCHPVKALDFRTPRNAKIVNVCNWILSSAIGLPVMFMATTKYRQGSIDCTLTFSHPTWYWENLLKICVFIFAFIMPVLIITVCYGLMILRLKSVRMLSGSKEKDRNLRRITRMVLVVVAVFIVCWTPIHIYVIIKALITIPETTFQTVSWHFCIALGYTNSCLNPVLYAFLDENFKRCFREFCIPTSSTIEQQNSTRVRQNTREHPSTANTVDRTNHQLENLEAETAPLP
RUN_DESCRIPTION: Competition test with ^3 H-DHM for the receptor of the opiates
Type: binding
CONDITIONS_USED: rat brain homogenate; read-out: ^3 HDHM IC50
One number for each entry, as −log10 of the molar value.

• C[C@@H]1CCCC[C@]1(c1cccs1)N1CCCCC1 (relative stereo) = 5.30

**Q:** Fill in reported pIC50 for this entry: c1csc(C2(N3CCCCC3)CCCCC2)c1 [TCP, ((2-thienyl)-1 cyclohexyl)-N-piperidine, reference compound]
**A:** 4.96
